experiment: Cytotoxicity against human MT4 cells by MTT assay; format: cell-based
recordedEndpoint: CC50

Some solved entries appear below for comparison.
>  <smilesEntry>
CC(=O)CSc1nc(Cc2c(F)cccc2F)cc(=O)[nH]1

>  <CC50>
> 81 µM

$$$$
>  <smilesEntry>
COc1ccc(C(=O)CSc2nc(Cc3c(Cl)cccc3Cl)c(C)c(=O)[nH]2)cc1

>  <CC50>
> 56 µM

$$$$
>  <smilesEntry>
O=C(CSc1nc(Cc2c(F)cccc2F)cc(=O)[nH]1)c1ccc([N+](=O)[O-])cc1

>  <CC50>
22 µM

$$$$
>  <smilesEntry>
CCc1c(Cc2c(F)cccc2F)nc(SCC(=O)c2ccc(F)cc2)[nH]c1=O

>  <CC50>
> 60 µM

$$$$
>  <smilesEntry>
COc1ccc(C(=O)CSc2nc(Cc3c(F)cccc3F)c(C(C)C)c(=O)[nH]2)cc1

>  <CC50>
33 µM

$$$$

# CC50 lookup, item `O=C(CSc1nc(Cc2c(F)cccc2F)cc(=O)[nH]1)c1ccccc1`
> 67 µM

Entry `CCc1c(Cc2c(F)cccc2F)nc(SCC(=O)c2ccc(OC)cc2)[nH]c1=O` has what CC50?
> 58 µM

What does the data say about its CC50? Entry: `Cc1c(Cc2c(F)cccc2F)nc(SCc2ccc([N+](=O)[O-])cc2)[nH]c1=O`
> 37 µM

Report CC50 for `CCc1c(Cc2c(Cl)cccc2Cl)nc(SCC(=O)c2ccc(OC)cc2)[nH]c1=O` please.
> 54 µM

# CC50 lookup, item `CC(C)c1c(Cc2c(Cl)cccc2Cl)nc(SCC(=O)c2ccccc2)[nH]c1=O`
> 56 µM
